Target: T1, human TREM2 (triggering receptor expressed on myeloid cells 2) (human) (UniProt Q9NZC2)
T1 sequence (looked up): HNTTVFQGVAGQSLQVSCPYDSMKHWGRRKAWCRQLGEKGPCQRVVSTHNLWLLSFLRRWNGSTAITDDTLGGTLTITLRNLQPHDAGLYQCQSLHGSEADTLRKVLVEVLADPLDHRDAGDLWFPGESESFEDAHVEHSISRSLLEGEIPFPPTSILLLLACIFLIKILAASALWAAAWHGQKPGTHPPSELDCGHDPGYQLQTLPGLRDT
Assay: 2nd screen, 2 nM Ab
observable: Binding Signal (fold over 6E7 parental antibody) (fold)
The reply should contain only the number, in fold.

Record 6E7 antibody affinity modulation variant V29 (antibody, V domains shown) VH: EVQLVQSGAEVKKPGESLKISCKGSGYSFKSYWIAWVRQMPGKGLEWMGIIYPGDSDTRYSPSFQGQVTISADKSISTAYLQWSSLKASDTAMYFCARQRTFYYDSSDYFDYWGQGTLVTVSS VL: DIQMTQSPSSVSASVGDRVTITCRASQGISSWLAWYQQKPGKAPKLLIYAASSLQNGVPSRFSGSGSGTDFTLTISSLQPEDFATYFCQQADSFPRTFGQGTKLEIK , field Binding Signal (fold over 6E7 parental antibody): 0.84

Record 6E7 antibody affinity modulation variant V17 (antibody, V domains shown) VH: EVQLVQSGAEVKKPGESLKISCKGSGYSFGSYWIAWVRQMPGKGLEWMGIIYPGDSDTRYSPSFQGQVTISADKSISTAYLQWSSLKASDTAMYFCARSRTFYYDSSDYFDYWGQGTLVTVSS VL: DIQMTQSPSSVSASVGDRVTITCRASQGISSWLAWYQQKPGKAPKLLIYAASSRQNGVPSRFSGSGSGTDFTLTISSLQPEDFATYFCQQADSSPRTFGQGTKLEIK , field Binding Signal (fold over 6E7 parental antibody): 4.22

Record 6E7 antibody affinity modulation variant V36 (antibody, V domains shown) VH: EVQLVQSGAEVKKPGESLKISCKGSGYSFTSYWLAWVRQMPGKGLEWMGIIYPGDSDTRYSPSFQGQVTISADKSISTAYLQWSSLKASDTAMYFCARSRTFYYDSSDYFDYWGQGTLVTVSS VL: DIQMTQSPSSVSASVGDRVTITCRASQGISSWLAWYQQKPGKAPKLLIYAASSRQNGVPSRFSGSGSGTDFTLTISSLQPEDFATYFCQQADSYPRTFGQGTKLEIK , field Binding Signal (fold over 6E7 parental antibody): 4

Cited source for all entries: patent US20250019437A1
